The origin of these recorded values is patent US20240228499A1.

pKi: −log10 of the molar value. Where a name gives a salt, the structure may show the parent alone.
Please consider the recorded pKi for human a-thrombin (Homo sapiens, UniProt P00734) in what follows.

- compound: "Cc1nc(N)ccc1CNC(=O)[C@@H]1CCc2ncc(NCc3cccc(F)c3)c(=O)n21"
  pKi: "5.60 to 6.30"

**Query** Lab note: need pKi with human a-thrombin (Homo sapiens, UniProt P00734) for entry Cc1cc(F)cc(CNc2cnc3n(c2=O)[C@H](C(=O)N[C@H](C)c2ccc(N)nc2)CC3)c1 [Compound 25, DI-trifluoroacetate] , please look it up.
**Result** < 4.60

**Query** Lab note: need pKi with human a-thrombin (Homo sapiens, UniProt P00734) for entry Cc1nc(N)ccc1CNC(=O)[C@@H]1CCc2ncc(NCc3cccc(OC4CC4)c3)c(=O)n21 [Compound 37, trifluoroacetate] , please look it up.
**Result** > 6.30

**Query** Lab note: need pKi with human a-thrombin (Homo sapiens, UniProt P00734) for entry Cc1cc(C)cc(CNc2cnc3n(c2=O)[C@H](C(=O)N[C@@H]2CCc4nc(N)ccc42)CC3)c1 , please look it up.
**Result** 5.60 to 6.30

**Query** Lab note: need pKi with human a-thrombin (Homo sapiens, UniProt P00734) for entry Cc1nc(N)ccc1CNC(=O)[C@@H]1CCc2ncc(NCc3cc(F)ccc3F)c(=O)n21 [Compound 28, di-trifluoroacetate] , please look it up.
**Result** 5.60 to 6.30

**Query** Lab note: need pKi with human a-thrombin (Homo sapiens, UniProt P00734) for entry Cc1cccc(C(C)Nc2cnc3n(c2=O)[C@H](C(=O)NCc2cc4c(s2)CNC4)CC3)c1 (single isomer, unassigned) [Compound 70, di-trifluoroacetate] , please look it up.
**Result** 4.60 to 5.00
